test: in vitro; settings: human, hela cells, % viability
Here, each record is paired with measured viability at 28.5 h, 10 µM data.
# unit: % | format: bare number

Consider the reported viability at 28.5 h, 10 µM for these compounds:
>>> endpoint_result("CNc1nc2c(ncn2C2CC(O)C(CO)O2)c(=O)[nH]1 (stereo not drawn)")
100
>>> endpoint_result("CC(=O)NC[C@H]1CN(c2ccc(-c3nnc(C(C)O)s3)c(F)c2)C(=O)O1 (stereo partly drawn)")
99.6
>>> endpoint_result("O=S(=O)(N1CCCCC1)N1CCCN(S(=O)(=O)N2CCCCC2)CC1")
85.4
>>> endpoint_result("O=[N+]([O-])c1ccc(NCCNC(=S)Nc2ccc(Cl)cc2)nc1")
85.8
>>> endpoint_result("CN(CCN1CCCCC1)C(=O)Cn1ccnc1-c1ccccc1")
91.3
>>> endpoint_result("CC(C)(C)Nc1nc(OCC#N)nc(N2CCCCC2)n1")
97.2
>>> endpoint_result("CN(Cc1ccc(-c2ccc(S(C)(=O)=O)cc2)nc1)C1CCN(C(=O)c2ccc(Cl)c(Cl)c2)CC1 [CBK164101T]")
104
>>> endpoint_result("Nc1nc(SCc2ccc(Cl)cc2)nc2sc3c(c12)CCN(Cc1ccccc1)C3")
88.1

# get_value(readout='viability at 28.5 h, 10 µM', item= Cc1ccc(C(=O)NCC2COc3ccccc3O2)c(N2CCOCC2)n1 (stereo not drawn) )
106
